Parameter 'readout' = pKi; parameter 'system' = D(2) dopamine receptor (Homo sapiens, UniProt P14416).
Sequence (P14416 whole entry): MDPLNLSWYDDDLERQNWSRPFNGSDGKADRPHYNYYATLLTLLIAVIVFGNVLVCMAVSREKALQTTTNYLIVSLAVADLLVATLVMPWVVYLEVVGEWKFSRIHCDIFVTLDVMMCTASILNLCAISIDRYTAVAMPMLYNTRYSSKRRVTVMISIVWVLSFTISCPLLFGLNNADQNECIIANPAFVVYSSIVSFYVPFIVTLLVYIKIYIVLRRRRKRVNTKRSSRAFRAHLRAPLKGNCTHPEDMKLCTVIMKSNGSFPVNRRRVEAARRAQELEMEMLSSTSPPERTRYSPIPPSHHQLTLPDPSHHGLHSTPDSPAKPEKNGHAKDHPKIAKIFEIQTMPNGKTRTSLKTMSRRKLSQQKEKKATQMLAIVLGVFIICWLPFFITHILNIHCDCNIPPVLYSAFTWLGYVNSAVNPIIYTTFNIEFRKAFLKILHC
pKi: −log10 of the molar value.
ATTRIBUTE_MEASURED: pKi

[[record]]
compound_smiles = "COc1ccccc1N1CCN(CCCCNC(=O)c2ccc(C(C)=O)cc2)CC1"
experimental_system = "D(2) dopamine receptor (Homo sapiens, UniProt P14416)"
attribute_measured = "pKi"
observed_result = 7.76

[[record]]
compound_smiles = "COc1ccccc1N1CCN(CCCCNC(=O)/C=C/c2ccc(I)cc2)CC1"
experimental_system = "D(2) dopamine receptor (Homo sapiens, UniProt P14416)"
attribute_measured = "pKi"
observed_result = 7.12

[[record]]
compound_smiles = "COc1ccccc1N1CCN(CCCCNC(=O)/C=C/C=C/c2ccccc2)CC1"
experimental_system = "D(2) dopamine receptor (Homo sapiens, UniProt P14416)"
attribute_measured = "pKi"
observed_result = 7.72

[[record]]
compound_smiles = "COc1ccccc1N1CCN(CCCCN2C(=O)c3cc4ccccc4cc3C2=O)CC1"
experimental_system = "D(2) dopamine receptor (Homo sapiens, UniProt P14416)"
attribute_measured = "pKi"
observed_result = 6.84

[[record]]
compound_smiles = "COc1ccccc1N1CCN(CCCCNC(=O)/C=C/c2ccc(-c3ccccc3)cc2)CC1"
experimental_system = "D(2) dopamine receptor (Homo sapiens, UniProt P14416)"
attribute_measured = "pKi"
observed_result = 7.43

[[record]]
compound_smiles = "COc1ccccc1N1CCN(CCCCN2C(=O)c3ccccc3C2=O)CC1"
experimental_system = "D(2) dopamine receptor (Homo sapiens, UniProt P14416)"
attribute_measured = "pKi"
observed_result = 7.30

[[record]]
compound_smiles = "COc1ccccc1N1CCN(CCCCNC(=O)c2cc3ccccc3oc2=O)CC1"
experimental_system = "D(2) dopamine receptor (Homo sapiens, UniProt P14416)"
attribute_measured = "pKi"
observed_result = 7.64

[[record]]
compound_smiles = "COc1ccccc1N1CCN(CCCCNC(=O)/C=C/c2ccco2)CC1"
experimental_system = "D(2) dopamine receptor (Homo sapiens, UniProt P14416)"
attribute_measured = "pKi"
observed_result = 7.95

[[record]]
compound_smiles = "COc1ccccc1N1CCN(CCCCNC(=O)c2ccccc2I)CC1"
experimental_system = "D(2) dopamine receptor (Homo sapiens, UniProt P14416)"
attribute_measured = "pKi"
observed_result = 7.82

[[record]]
compound_smiles = "COc1ccccc1N1CCN(CCCCNC(=O)c2coc3ccccc3c2=O)CC1"
experimental_system = "D(2) dopamine receptor (Homo sapiens, UniProt P14416)"
attribute_measured = "pKi"
observed_result = 7.33

[[record]]
compound_smiles = "COc1ccccc1N1CCN(CCCCNC(=O)C2(c3ccc(Cl)cc3)CCCC2)CC1"
experimental_system = "D(2) dopamine receptor (Homo sapiens, UniProt P14416)"
attribute_measured = "pKi"
observed_result = 7.25

[[record]]
compound_smiles = "COc1ccccc1N1CCN(CCCCNC(=O)/C=C/c2ccc3ccccc3c2)CC1"
experimental_system = "D(2) dopamine receptor (Homo sapiens, UniProt P14416)"
attribute_measured = "pKi"
observed_result = 7.49

[[record]]
compound_smiles = "COc1ccccc1N1CCN(CCCCNC(=O)/C=C/c2cccs2)CC1"
experimental_system = "D(2) dopamine receptor (Homo sapiens, UniProt P14416)"
attribute_measured = "pKi"
observed_result = 8.02

[[record]]
compound_smiles = "COc1ccccc1N1CCN(Cc2cccc(CNC(=O)c3ccc4ccccc4c3)c2)CC1"
experimental_system = "D(2) dopamine receptor (Homo sapiens, UniProt P14416)"
attribute_measured = "pKi"
observed_result = 7.35

[[record]]
compound_smiles = "COc1ccccc1N1CCN(CCCCNC(=O)c2nccc3ccccc23)CC1"
experimental_system = "D(2) dopamine receptor (Homo sapiens, UniProt P14416)"
attribute_measured = "pKi"
observed_result = 7.68

[[record]]
compound_smiles = "COc1ccccc1N1CCN(CCCCNC(=O)/C=C/c2ccc(/C=C/C(=O)NCCCCN3CCN(c4ccccc4OC)CC3)cc2)CC1"
experimental_system = "D(2) dopamine receptor (Homo sapiens, UniProt P14416)"
attribute_measured = "pKi"
observed_result = 8.14

[[record]]
compound_smiles = "COc1ccccc1N1CCN(CCCCN2C(=O)c3cccc4cccc(c34)C2=O)CC1"
experimental_system = "D(2) dopamine receptor (Homo sapiens, UniProt P14416)"
attribute_measured = "pKi"
observed_result = 7.40

[[record]]
compound_smiles = "COc1ccccc1N1CCN(CCCCNC(=O)c2ccc(C(C)(C)C)cc2)CC1"
experimental_system = "D(2) dopamine receptor (Homo sapiens, UniProt P14416)"
attribute_measured = "pKi"
observed_result = 7.58

[[record]]
compound_smiles = "COc1ccc(/C=C/C(=O)NCCCCN2CCN(c3ccccc3OC)CC2)cc1"
experimental_system = "D(2) dopamine receptor (Homo sapiens, UniProt P14416)"
attribute_measured = "pKi"
observed_result = 7.92

[[record]]
compound_smiles = "COc1ccccc1N1CCN(Cc2ccccc2CNC(=O)c2ccc3ccccc3c2)CC1"
experimental_system = "D(2) dopamine receptor (Homo sapiens, UniProt P14416)"
attribute_measured = "pKi"
observed_result = 7.55

[[record]]
compound_smiles = "COc1ccccc1N1CCN(CCCCNC(=O)/C=C/c2cccc(I)c2)CC1"
experimental_system = "D(2) dopamine receptor (Homo sapiens, UniProt P14416)"
attribute_measured = "pKi"
observed_result = 6.79

[[record]]
compound_smiles = "COc1ccccc1N1CCN(CCCCNC(=O)/C=C/c2cccnc2)CC1"
experimental_system = "D(2) dopamine receptor (Homo sapiens, UniProt P14416)"
attribute_measured = "pKi"
observed_result = 7.84

[[record]]
compound_smiles = "COc1ccccc1N1CCN(CCCCNC(=O)/C=C/c2ccc(OCc3ccccc3)cc2)CC1"
experimental_system = "D(2) dopamine receptor (Homo sapiens, UniProt P14416)"
attribute_measured = "pKi"
observed_result = 7.49

[[record]]
compound_smiles = "COc1ccccc1N1CCN(CCCCNC(=O)/C=C/c2ccc(Cl)cc2)CC1"
experimental_system = "D(2) dopamine receptor (Homo sapiens, UniProt P14416)"
attribute_measured = "pKi"
observed_result = 7.65

[[record]]
compound_smiles = "COc1ccccc1N1CCN(CCCCNC(=O)c2ccc(C(=O)c3ccccc3)cc2)CC1"
experimental_system = "D(2) dopamine receptor (Homo sapiens, UniProt P14416)"
attribute_measured = "pKi"
observed_result = 7.20

[[record]]
compound_smiles = "COc1ccccc1N1CCN(CCCCNC(=O)c2cc3ccccc3cn2)CC1"
experimental_system = "D(2) dopamine receptor (Homo sapiens, UniProt P14416)"
attribute_measured = "pKi"
observed_result = 7.56

[[record]]
compound_smiles = "COc1ccccc1N1CCN(CCCCNC(=O)/C=C/c2ccc(F)cc2)CC1"
experimental_system = "D(2) dopamine receptor (Homo sapiens, UniProt P14416)"
attribute_measured = "pKi"
observed_result = 7.68

[[record]]
compound_smiles = "COc1ccccc1N1CCN(CCCCNC(=O)/C=C/c2ccc([N+](=O)[O-])cc2)CC1"
experimental_system = "D(2) dopamine receptor (Homo sapiens, UniProt P14416)"
attribute_measured = "pKi"
observed_result = 7.85

[[record]]
compound_smiles = "COc1ccccc1N1CCN(CCCCNC(=O)c2ccc(-c3ccc(Cl)cc3)o2)CC1"
experimental_system = "D(2) dopamine receptor (Homo sapiens, UniProt P14416)"
attribute_measured = "pKi"
observed_result = 6.70

[[record]]
compound_smiles = "COc1ccccc1N1CCN(CCCNC(=O)c2cccc(I)c2)CC1"
experimental_system = "D(2) dopamine receptor (Homo sapiens, UniProt P14416)"
attribute_measured = "pKi"
observed_result = 6.63

[[record]]
compound_smiles = "COc1ccccc1N1CCN(CCCCNC(=O)/C=C/c2ccc(Cl)c(Cl)c2)CC1"
experimental_system = "D(2) dopamine receptor (Homo sapiens, UniProt P14416)"
attribute_measured = "pKi"
observed_result = 7.64

[[record]]
compound_smiles = "COc1ccccc1N1CCN(CCCCNC(=O)/C=C/c2cccc(Oc3ccccc3)c2)CC1"
experimental_system = "D(2) dopamine receptor (Homo sapiens, UniProt P14416)"
attribute_measured = "pKi"
observed_result = 6.94

[[record]]
compound_smiles = "COc1ccccc1N1CCN(CCCCNC(=O)/C=C/c2ccccc2)CC1"
experimental_system = "D(2) dopamine receptor (Homo sapiens, UniProt P14416)"
attribute_measured = "pKi"
observed_result = 7.87


Attribution: ChEMBL document CHEMBL1144878
